# Purity (area %) annotations
protocol notes: solid state stability: storage at 25° C./60% RH and 40° C./75% RH for 1 week, XRPD and HPLC purity
Format: physicochemical
measurement parameters: 40° C./75% RH/open/1 week, HPLC purity
observation type: Purity (area %)

molecule="COc1ccc([C@@]23CCC(=O)C[C@@H]2N(C)CC3)cc1OC.O=S(=O)(O)c1ccccc1 [Besylate Form B]" readout_units="area %" reported_result=97.12
molecule="COc1ccc([C@@]23CCC(=O)C[C@@H]2N(C)CC3)cc1OC.O=C(O)c1cc(O)ccc1O [Gentisate Form A]" readout_units="area %" reported_result=97.11
molecule="COc1ccc([C@@]23CCC(=O)C[C@@H]2N(C)CC3)cc1OC [Freeform Form A]" readout_units="area %" reported_result=98.01
molecule="COc1ccc(C23CCC(=O)CC2N(C)CC3)cc1OC.Cl (stereo not shown) [HCl Form A]" readout_units="area %" reported_result=97.00

* * *

protocol notes: solid state stability: storage at 25° C./60% RH and 40° C./75% RH for 1 week, XRPD and HPLC purity
Type: physicochemical
measurement parameters: 40° C./75% RH/open/1 week
observation type: form change by XRPD after storage

compound="COc1ccc([C@@]23CCC(=O)C[C@@H]2N(C)CC3)cc1OC.O=C(O)c1cc(O)ccc1O [Gentisate Form A]" reported_result="no form change"
compound="COc1ccc([C@@]23CCC(=O)C[C@@H]2N(C)CC3)cc1OC.O=S(=O)(O)c1ccccc1 [Besylate Form B]" reported_result="no form change"
compound="COc1ccc(C23CCC(=O)CC2N(C)CC3)cc1OC.Cl (stereo not shown) [HCl Form A]" reported_result="no form change"

* * *

protocol notes: kinetic solubility in H2O and bio-relevant media (SGF, FaSSIF, FeSSIF) at 37° C.
Type: physicochemical
measurement parameters: thermodynamic from solid; FeSSIF, 2 hrs, 37° C.; read-out: S: Solubility (mg/mL), calculated by freebase
observation type: solubility at 2 h

compound="COc1ccc([C@@]23CCC(=O)C[C@@H]2N(C)CC3)cc1OC [Freeform Form A]" reported_result="> 9.8 mg/mL"

* * *

protocol notes: solubility of Freeform Form A in solvents
Format: physicochemical
measurement parameters: H2O, water
observation type: solubility

compound="COc1ccc([C@@]23CCC(=O)C[C@@H]2N(C)CC3)cc1OC [Freeform Form A]" observation_type=solubility reported_result="> 42 mg/mL"

* * *

protocol notes: kinetic solubility in H2O and bio-relevant media (SGF, FaSSIF, FeSSIF) at 37° C.
Type: physicochemical
measurement parameters: simulated gastric fluid, thermodynamic from solid; SGF, 1 hr, 37° C.; read-out: S: Solubility (mg/mL), calculated by freebase
observation type: solubility at 1 h

compound="COc1ccc([C@@]23CCC(=O)C[C@@H]2N(C)CC3)cc1OC [Freeform Form A]" observation_type="solubility at 1 h" reported_result="> 8.6 mg/mL"

* * *

protocol notes: solubility of Freeform Form A in solvents
Assay type: physicochemical
measurement parameters: Acetone, organic solvent or mixture
observation type: solubility

compound="COc1ccc([C@@]23CCC(=O)C[C@@H]2N(C)CC3)cc1OC [Freeform Form A]" observation_type=solubility reported_result="> 40 mg/mL"

* * *

protocol notes: kinetic solubility in H2O and bio-relevant media (SGF, FaSSIF, FeSSIF) at 37° C.
Format: physicochemical
measurement parameters: 37 °C, water, thermodynamic from solid; in H2O; read-out: observed solubility
observation type: solubility

compound="COc1ccc([C@@]23CCC(=O)C[C@@H]2N(C)CC3)cc1OC [Freeform Form A]" observation_type=solubility reported_result="> 8300 µg/mL"
